molecular target: human α5β3γ2 receptors (α5-GABAA receptor) (Homo sapiens (Human), UniProt P18507+P31644); assay: 3H-flunitrazepam competition binding, human α5β3γ2 GABAA receptor; settings: HEK293 cell membranes, 1 nM 3H-flunitrazepam; read-out: α5-GABAAR Ki
Measured quantity: pKi
# pKi = -log10(concentration in molar units)

Reference set, count: 4
Compound	pKi
Cc1nnn(-c2ccc(C(F)F)cc2)c1COc1ccc(C2CCNC(=O)C2)cn1 (centres unmarked)	8.64
O=C1CN(c2ccc(OCc3c(CO)nnn3-c3ccc(C(F)F)cc3)nn2)CCN1	9.09
CCNC(=O)[C@H]1CCN1c1ccc(OCc2c(C)nnn2-c2ccc(C(F)F)cc2)nn1	7.47
Cc1nnn(-c2ccc(C(F)F)cc2)c1COc1ccc(N2CC(C(=O)Nc3cnn(C)c3)C2)nn1	8.90

Input Cc1nnn(-c2ccc(C(F)F)cc2)c1COc1ccc(N2CC(C(=O)NC3CCN(C)CC3)C2)nn1 . Output pKi: 8.72

Looking up O=C1CN(c2ccc(OCc3c(C4CC4)nnn3-c3ccc(C(F)F)cc3)nn2)CCN1 , I found its pKi recorded as 8.59

# pKi of Cc1nnn(-c2ccc(C(F)F)cc2)c1COc1ccc(N2CCOC2=O)nn1 = 8.43

// pKi lookup, compound = COC1CCN(c2ccc(OCc3c(C)nnn3-c3ccc(C(F)F)cc3)nn2)C1 (centres unmarked) , result: 8.70

# compound Cc1nnn(-c2ccc(C(F)F)cc2)c1COc1ccc(N2CC(=O)N3CCOC[C@H]3C2)nn1 ; its pKi = 9.26

In plain terms, Cc1nnn(-c2ccc(C(F)F)cc2)c1COc1ccc(N2CC(=O)N3CCNCC3C2)nn1 (centres unmarked) has a documented pKi of 9.08
